system: MS2 coat protein; assay: apparent KD of MS2 coat protein; designed switch direction (-1 OFF switch, 1 ON switch): 1; higher = weaker reporter binding; conditions: input ligand: FMN 200 uM
observed-property: apparent KD of MS2 coat protein (µM)
# unit: µM | format: bare number

Below: 4 sequences and their reported apparent KD of MS2 coat protein.
chain: AACCCAUCGGGAGGAUAUGGCACCUUAUUGGUGCCAGAAGGUCCAACAUGAGGAUCACCCAUGUGGGAGCCGUCGAAAGACGGC [Fiskers NG1ss - 7] (Eterna round: R96, puzzle: Same State NG 1)
output-unit: µM
apparent KD of MS2 coat protein: 0.27

chain: AGAUCAUGACGAGGAUAUGGUACAUGAGGAUCACCCAUGUAUGUAUCAUAACGCGAAUGACGAAACCAGAAGGCGUCGUGAUCA [Mat - Same State NG 2 - JL mod - D43] (Eterna round: R96, puzzle: Same State NG 2)
output-unit: µM
apparent KD of MS2 coat protein: 0.00874

chain: GCCGUAUAAACAUGAGGAUCACCCAUGUGCGCGAGAGCGAAUGAGGAUAUCGAUGGGUUUCCCGUCGAGAAGGCGUGGGUCGGC [JL SSNG3 3.96] (Eterna round: R96, puzzle: Same State NG 3)
output-unit: µM
apparent KD of MS2 coat protein: 0.0377

chain: GCGAGCGUACUUGCAACAUGAGGAUCACCCAUGUUAACUGGACAGGAUAUGGUACCGUUUCGGUACCAGAAGGGUUCCUCCAUG [JL SSNG3 3.61] (Eterna round: R96, puzzle: Same State NG 3)
output-unit: µM
apparent KD of MS2 coat protein: 0.16

## Input Please report apparent KD of MS2 coat protein with MS2 coat protein for item GUAGCAUACCGAGGAUAUUCAUUACAUGAGGAUCACCCAUGUUUAUUAUAGGCCAAAAGGCCUUGGGAGAAGGCGGAAUGCUAC [Xeonanis - 20 Mod12] (Eterna round: R96, puzzle: Same State NG 2) .
## Output 0.00836

## Input Please report apparent KD of MS2 coat protein with MS2 coat protein for item UUACUCAUGUAAGGAUAUGCAGCCGAAACGGCUGCAGAAGGUACUAUAAUACAUGAGGAUCACCCAUGUCUCUAUUAUUUAGUU [Mat - Same State NG 1 - JL mod - D94] (Eterna round: R96, puzzle: Same State NG 1) .
## Output 0.0734

## Input Please report apparent KD of MS2 coat protein with MS2 coat protein for item GGUAGGUUACUACCAAACAUGAGGAUCACCCAUGUAGGUGGGAAGGAUAUGGUACCUUUUAGGUACCAGAAGGUCCAUACGAUC [NGss mod of JL's mod of Fisker 2] (Eterna round: R96, puzzle: Same State NG 3) .
## Output 0.451

## Input Please report apparent KD of MS2 coat protein with MS2 coat protein for item UAGCGCUGUCGAGAGGAUAUGCGGUGAUGGACAUGAGGAUCACCCAUGUUAGCGAUAGCAUUACGGUAGAAGGCUCUACAGCUGU [salish99_ss2_r3_093] (Eterna round: R96, puzzle: Same State 2) .
## Output 0.0382

## Input Please report apparent KD of MS2 coat protein with MS2 coat protein for item GCUGGAAAUCACAUGAGGAUCACCCAUGUUCCGGAAACGGCACAGGAUAUCUGUCCGAAAAGGUCAGAGAAGGGUGAAACCAGC [Fiskers NG3ss - 85] (Eterna round: R96, puzzle: Same State NG 3) .
## Output 0.303

## Input Please report apparent KD of MS2 coat protein with MS2 coat protein for item GGAGCCAAGGCAGGAUAUUCAUAUAAAUUAACAUGAGGAUCACCCAUGUAGGCCAGAAGGCCUUGGGAGAAGGGCCAUGGCUCG [Xeonanis - 13 mod8] (Eterna round: R96, puzzle: Same State NG 2) .
## Output 0.0216

## Input Please report apparent KD of MS2 coat protein with MS2 coat protein for item GCUAGAAAUAAAGCCAACAUGAGGAUCACCCAUGUAUGUUGGUAGGAUAUCGUUUGCAAAGCAAACGAGAAGGGCUAAUCUAGC [Mat - Same State NG 3 - JL Mod - D65] (Eterna round: R96, puzzle: Same State NG 3) .
## Output 0.0764

---

// apparent KD of MS2 coat protein lookup, one value per entry
system: MS2 coat protein; assay: apparent KD of MS2 coat protein; designed switch direction (-1 OFF switch, 1 ON switch): -1; higher = weaker reporter binding; settings: input ligand: none
The answer should read as a number with its unit following.

Below: 2 sequences and their reported apparent KD of MS2 coat protein.
chain: GAAGGACGAGGAUAUGUAUGGGACAGCCGAGGAAAAUCUCAACAUGAGGAUCACCCAUGUAGAAGGCGUGCCCG [Eternabot (Original) Solution 44] (Eterna round: R97, puzzle: Exclusion 2)
observed-measurement: 14.1 nM
--
chain: AUAAAGCAAGGAUAUACAUGAGGAUCACCCAUGUAUGAAAGUUGGCCGCGGUUUAGAUGUAGAAGGUGCAAGGG [EX3 B.8] (Eterna round: R97, puzzle: Exclusion 3)
observed-measurement: 28.1 nM

Okay, next one:
## Input Report apparent KD of MS2 coat protein, nothing else, for this sequence: GGGUGUGAAGGAUAUACAUGAGGAUCACCCAUGUGAGAGGAGAAUGUUGAGGAGGUUGGUAGAAGGUCAGGAGG [JR_Exclusion3_Sub010] (Eterna round: R96, puzzle: Exclusion 3)
## Output 165 nM

---

test system: MS2 coat protein; experiment: apparent KD of MS2 coat protein, switch ON state; designed switch direction (-1 OFF switch, 1 ON switch): -1; higher = weaker reporter binding; conditions: FMN input: 0 or 200 uM; Eterna round: R93 (includes R88 designs)
observed-property: apparent KD of MS2 coat protein (nM)
# unit: nM | format: bare number

chain: GAAAAGUCAGGAUAUACAGAUAAAAAAACGAAAAAAAAUCUGUAGAAGGGACAUGAGGAUCACCCAUGUAAAAG [Mat - Exclusion 4 - Mayanna - D101]
apparent KD of MS2 coat protein [nM]: 47.3
--
chain: GUGAAGGAAGGAUAUACAAAGGGACGUUAUAAGAGAAGAAGACAUGAGGAUCACCCAUGUAGAAGGUCCAGAUC [Beorteesri]
apparent KD of MS2 coat protein [nM]: 25.9
--
chain: UCCAGACAUGAGGAUCACCCAUGUCAGGAUAUCUAGAAAACCUCAUGUAAAAAAAACUAGAGAAGGGAUAUGAA [Design 96: Pseudoknot F]
apparent KD of MS2 coat protein [nM]: 19.6

Okay, next one:
## Input Report apparent KD of MS2 coat protein, nothing else, for this sequence: AGUUGGCGAGGAUAUACAUGAGGAUCACCCAUGUGAGAGAAAAAAGUGAGAAAGAAAAGUAGAAGGCGCUGACU [salish99-ex3-06]
## Output 46.4

---

test system: MS2 coat protein; assay: apparent KD of MS2 coat protein; designed switch direction (-1 OFF switch, 1 ON switch): -1; higher = weaker reporter binding; conditions: input ligand: microRNA oligo, concentration not stated
observed-property: apparent KD of MS2 coat protein
The answer should read as a number with its unit following.

Below: 5 sequences and their reported apparent KD of MS2 coat protein.
chain: AAAGUUCGAGGAUAUCUACUUAGCUACAUGAGGAUCACCCAUGUUAUCCUCCCGCUGGGAAGAGAAGGCGGUUAAA [Xeonceso] (Eterna round: R96, puzzle: Exclusion 5)
system-name: MS2 coat protein
observed-property: apparent KD of MS2 coat protein
observed-measurement: 27.1 nM

chain: CAACCACGUGCAGGAUAUGCGAAGUGAUUCGGUGGUACCACAGCGUAAACAUGAGGAUCACCCAUGUAGAAGGGCAUGAGGGCU [Eternabot solution 16] (Eterna round: R96, puzzle: Exclusion NG 2)
system-name: MS2 coat protein
observed-property: apparent KD of MS2 coat protein
observed-measurement: 119 nM

chain: GGGUGUGAAGGAUAUACAUGAGGAUCACCCAUGUGAGAGGAGAAUGUUGAGGAGGUUGGUAGAAGGUCAGGAGG [JR_Exclusion3_Sub010] (Eterna round: R96, puzzle: Exclusion 3)
system-name: MS2 coat protein
observed-property: apparent KD of MS2 coat protein
observed-measurement: 105 nM

chain: UUUUUAUAUGAAGGAUAUACUUAACAUGAGGAUCACCCAUGUGGUGUUGUGAGUGAGUGAGUUUAGUAGAAGGUCAAAUAUUUU [JMF's solution 7] (Eterna round: R96, puzzle: Exclusion NG 2)
system-name: MS2 coat protein
observed-property: apparent KD of MS2 coat protein
observed-measurement: 194 nM

chain: UUGAAGUCGUCAGGAUAUAGAUUUAAUGUCAUGCGUAUGUUCUUACAUGAGGAUCACCCAUGUCGCUAGAAGGGACUAUAGAUU [JR_ExcNG2_Sub008] (Eterna round: R96, puzzle: Exclusion NG 2)
system-name: MS2 coat protein
observed-property: apparent KD of MS2 coat protein
observed-measurement: 35.1 nM

Okay, next one:
## Input Please report apparent KD of MS2 coat protein with MS2 coat protein for item GUCAGCUCGUGAGGAUAUACAUGAUAGAUCGAUUAAUUAAUUAAUUUAACAUGAGGAUCACCCAUGUAGAAGGCACGAGCUGAU [ENG2/1-A2] (Eterna round: R96, puzzle: Exclusion NG 2) .
## Output 35.8 nM

// provenance: the supplement of paper PMC9170038
